Read-out: sulfotransferase (SULT2A), SULT2A1 (gene 6822)
RUN DESCRIPTION: CLD_SULT2A_48hr: CellzDirect (CLD) Gene Expression Assay for sulfotransferase (SULT2A) at 48 hours (AID 2283710);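 note: hits raise SULT2A1 transcript above the 0.2% DMSO vehicle baseline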
Description: CLD_48hr is a cell-based, multiplexed-readout assay that uses hepatocyte, a human liver primary cell, with measurements taken at 48 hours after chemical dosing in a 96-well plate.CLD_SULT2A_48hr is one of 16 assay component(s) measured or calculated from the CLD_48hr assay. […] Furthermore, this assay endpoint can be referred to as a primary readout. […]
Results filed as inconclusive are left out. Activity calls are given as the source filed them. Rule for the calls: active = hit-call score of the fitted dose curve at least 0.9, where 1 is the maximum; inconclusive = response in the unintended direction; inactive = score below 0.9.
Classes used: TRUE = active, FALSE = inactive

1. CCOC(=O)C(C)Oc1ccc(Oc2nc3ccc(Cl)cc3o2)cc1 (centres undefined)    FALSE
2. CCN(Cc1c(F)cccc1Cl)c1c([N+](=O)[O-])cc(C(F)(F)F)cc1[N+](=O)[O-]    FALSE
3. Cc1nn(C)c(Oc2ccccc2)c1C=NOCc1ccc(C(=O)OC(C)(C)C)cc1    FALSE
4. c1ccc(Nc2ccccc2)cc1    TRUE
5. CCN(CC)C(=O)c1cccc(C)c1    FALSE
6. CCSC(=O)N(CC(C)C)CC(C)C    FALSE
7. COC(=O)c1ccc(I)cc1S(=O)(=O)NC(=O)Nc1nc(C)nc(OC)n1    FALSE
8. CCC(O)=C1C(=O)CC(C(=O)O)CC1=O (centres undefined)    FALSE
9. COC(=O)c1ccc(CNS(C)(=O)=O)cc1S(=O)(=O)NC(=O)Nc1nc(OC)cc(OC)n1    FALSE
10. COc1c(Cl)ccc(Cl)c1C(=O)O    FALSE
11. COC(=O)c1c(Cl)nn(C)c1S(=O)(=O)NC(=O)Nc1nc(OC)cc(OC)n1    FALSE
12. CCCOC(=O)c1ccc(C(=O)OCCC)nc1    FALSE
13. COC(=O)c1ccccc1C(=O)O    FALSE
14. CC(C)(c1ccc(O)cc1)c1ccc(O)cc1    FALSE
